# credit: ChEMBL document CHEMBL4825663

- PROTOCOL: Oral bioavailability in Sprague-Dawley rat at 20 mg/kg measured upto 24 hrs in presence of 10 mg/kg encequidar by LC-MS/MS analysis
- Format: ADME, organism-based
- CONDITION_DETAILS: in vivo
ASSAY_METRIC: bioavailability (%)
Quick reminder: number only, in %, skip the unit.

Q) // query bioavailability value for entry CC(=O)O[C@H]1C(=O)[C@@]2(C)[C@H]([C@H](OC(=O)c3ccccc3)[C@]3(O)C[C@H](OC(=O)[C@H](O)[C@@H](NC(=O)c4ccccc4)c4ccccc4)C(C)=C1C3(C)C)[C@]1(OC(C)=O)CO[C@@H]1C[C@@H]2O [PACLITAXEL]
A) 41.3
